testSummary: RP, Waters CORTECS UPLC C18, 100 × 2.1 mm, 1.6 µm, 40 °C, 0.4 mL/min, estimated dead time 0.55 min; A: water + 0.1% formic acid, pH 3; B: acetonitrile + 0.1% formic acid, pH 3; gradient (min/%B) 0/5 1.12/5 6.41/99.5 10.01/99.5
conditionDetails: stereoisomer not certain
observationType: LC retention time (min)
Reply with just the number (in min).

{"molecule": "COc1ccc2[nH]cc(CCNC(C)=O)c2c1 [MELATONIN]", "LC retention time [min]": 3.31}

Query string: Look at this molecule and give its reported LC retention time. CCCSP(=O)(OCC)SCCC [Ethoprop]
Result string: 5.02

Query string: Form field: reported LC retention time of CCCC(Cn1cncn1)c1ccc(Cl)cc1Cl (stereo not given) [Penconazole]
Result string: 5.19

Query string: Please give the measured LC retention time for this molecule: CC(CCC(=O)NCC(=O)O)C1CCC2C3C(O)CC4CC(O)CCC4(C)C3CC(O)C12C (stereo not given) [Glycocholic acid hydrate]
Result string: 4.08

Query string: Which LC retention time value is on record for CN(C)C(=O)NC1CCCCCCC1 [Cycluron] ?
Result string: 4.22

Reference for the values: the RepoRT retention time repository
